meta.source: PubChem BioAssay (Tox21)

Test: qHTS assay to identify small molecule antagonists of the thyroid receptor (TR) signaling pathway (AID 743065); note: nearly all actives have a fitted effect of over 55% in size
Settings: GH3.TRE-Luc, T3-stimulated luciferase inhibition, 23.5 h; series mostly up to 70.3 µM
Results filed as inconclusive are left out. The source made the active and inactive calls. Calls come from the whole dose curve; as a rule, active = well fitted inhibition curve with a large enough effect in the repeat runs; inconclusive = weak or mixed curves; inactive = no such curve, though single readings can be large or run the other way.
Labels: yes for active, no for inactive

compound	category.label
O=C1OC(O)C(C(Cl)Cl)=C1Cl (configuration not stated)	yes
Nc1cc(Cl)c(NC2=NCCN2)c(Cl)c1	no
COc1c(Br)cc(Br)c(C)c1Br	no
Cc1ccc(C(C)(C)c2ccc(C)cc2)cc1	no
OCCCNc1ccccc1	no
CC(=O)Oc1cc(C(F)(F)F)ccc1C(=O)O	no
O=C(O)c1cc(=O)c2c3nc4ccccc4oc-3cc(=O)c2[nH]1	no
